Source of measurements: ChEMBL document CHEMBL6071147

# Target Of Assay: Bromodomain testis-specific protein (Homo sapiens)
# Assay: Displacement of [Lys(5,8,12,16)Ac]H4(1 to 21)-biotin from BRDT-BD1 (unknown origin) by TR-FRET assay
Attribute Measured: IC50 (nM)
The answer is to be given in nM; state only the numeric part.

Q. So what does the record say about IC50 for "Cn1cc(-c2ccc3nc(C4CCOCC4)[nH]c3c2Oc2ccccc2)ccc1=O" ?
A. 22
